Assay: In vivo ileum (distal loop) absorption assay
Conditions: Sprague Dawley, rat, 300 μM peptide with 100 mM C10, rats, 10 min, read-out: 10 min IL plasma concentration
Starred links: 1 amine or outer side, 2 acyl side, 3 side chain; linkers in the order of their positions; H or OH if unused. Non-standard residues stand in square brackets, D forms with d. Groups on a side chain read outwards from the residue. No end group written: not given here. *: point of attachment. C18 diacid = O=C(O)CCCCCCCCCCCCCCCCC(=O)*; γGlu = O=C(O)[C@H](CCC(=O)[*:2])N[*:1]; αMe4Pal = C[C@](N)(Cc1ccncc1)C(=O)O; αMeL = CC(C)C[C@](C)(N)C(=O)O; AEEA = NCCOCCOCC(=O)O; Aib = CC(C)(N)C(=O)O
measured property: level at time molar at 10 min

Inquiry: // query level at time molar at 10 min value for entry Y[Aib]QGTFTSDFSQ[αMeL]LDKK([AEEA-γGlu-C18 diacid])AQ[αMe4Pal]AFIEYLIE[Aib]GESSGAPPPSGS-NH2 [Example 232]
Reply text: 186 nM
